tested on: T47D; assay: NCI tumour cell line growth inhibition, 48 h
Activity calls are given as the source filed them. No stated cut-off is given here; in the data, active = GI50 up to about 1.1 µM and inactive = higher.
Pick one and only one: True for active, False for inactive

Inquiry: Lab log entry: O=S1(=O)CCN(c2ccccc2CC(c2c[nH]c3ccccc23)c2c[nH]c3ccccc23)CC1 — outcome as called in the assay?
Reply text: False

Inquiry: Lab log entry: CC(C)(/N=N/C(C)(C)C(=O)NCCO)C(=O)NCCO — outcome as called in the assay?
Reply text: False

Inquiry: Lab log entry: Clc1ccc(C2=CCN3CC=C(c4ccc(Cl)cc4)C23)cc1 — outcome as called in the assay?
Reply text: False

Inquiry: Lab log entry: N#CC(O)CCOCc1ccccc1 (stereo not given) — outcome as called in the assay?
Reply text: False

Inquiry: Lab log entry: [O-][S+]1SC(=S)C2C=CC=NC21 (stereo not given) — outcome as called in the assay?
Reply text: False

Inquiry: Lab log entry: Cc1cc(NS(=O)(=O)c2ccc(Nc3c4ccccc4nc4c(C(=O)NCCO)cccc34)cc2)no1 — outcome as called in the assay?
Reply text: False

Inquiry: Lab log entry: Cc1ncc([N+](=O)[O-])n1CC[N+](C)([O-])CCCCn1ccnc1[N+](=O)[O-] (stereo not given) — outcome as called in the assay?
Reply text: False

Inquiry: Lab log entry: Cc1ccc2c(O)cc(-c3ccccc3)nc2n1 — outcome as called in the assay?
Reply text: False

Inquiry: Lab log entry: COC(=O)[C@@H]1c2cc3c(c(O)c2[C@@H](OC2OC(C)C(OC)C(C)(OC)C2OC)C[C@]1(C)O)C(=O)c1c(O)cc2c(c1C3=O)O[C@H]1O[C@]2(C)[C@H](O)[C@@H](N(C)C)[C@@H]1O (stereo not given in full) — outcome as called in the assay?
Reply text: True

Inquiry: Lab log entry: O=C1NC(NNc2ccccc2)=N/C1=C\c1ccccc1O — outcome as called in the assay?
Reply text: False

Inquiry: Lab log entry: O=C1c2n[nH]nc2C(=O)c2n[nH]nc21 — outcome as called in the assay?
Reply text: False

Inquiry: Lab log entry: CCCC(=O)O[C@H]1C=C2C[C@@]34SS[C@]5(CC6=C[C@H](OC(C)=O)[C@@H]7O[C@@H]7[C@H]6N5C3=O)C(=O)N4[C@@H]2[C@H]2O[C@H]21 — outcome as called in the assay?
Reply text: True

Inquiry: Lab log entry: CN(CCN(C)CCN(C)C(=O)Cc1ccc(Cl)c(Cl)c1)CCN1CCCC1 — outcome as called in the assay?
Reply text: False

Inquiry: Lab log entry: COc1ccc(-c2cc(=O)c3c(OC)c(O)c(OC)cc3o2)cc1 — outcome as called in the assay?
Reply text: False

Inquiry: Lab log entry: CCCCCCCCCCCCCCCC(=O)N(CCCCCCCCCCC(=O)O)CC(O)C(O)C(OC1OC(CO)C(O)C(O)C1O)C(O)CO (stereo not given) — outcome as called in the assay?
Reply text: False

Inquiry: Lab log entry: C[C@@H](CO)C1=C(O)C(=O)c2c(ccc3c2CCCC3(C)C)C1=O — outcome as called in the assay?
Reply text: False

Inquiry: Lab log entry: O=C(CC(=O)Nc1ccc(C(=O)O)cc1)Nc1ccc(C(=O)O)cc1 — outcome as called in the assay?
Reply text: False

Inquiry: Lab log entry: CC(C)(Br)C(Br)CCC1(C2CO2)CO1 (stereo not given) — outcome as called in the assay?
Reply text: False

Inquiry: Lab log entry: CONC(C)=O — outcome as called in the assay?
Reply text: False

Inquiry: Lab log entry: CNn1c(C)n[nH]c1=O — outcome as called in the assay?
Reply text: False

Inquiry: Lab log entry: CCOC(=O)c1nc2ccccc2n(CC)c1=O — outcome as called in the assay?
Reply text: False

Inquiry: Lab log entry: FC(F)(F)C1(C(F)(F)F)C2CCC3(CC(F)(F)C(F)(F)S3)C1C2 (stereo not given) — outcome as called in the assay?
Reply text: False

Inquiry: Lab log entry: C#CCOC(=O)C(=[N+]=[N-])C(=O)CC(C)C — outcome as called in the assay?
Reply text: False

Inquiry: Lab log entry: Cc1c2cc[n+](C)cc2c(C)c2c1[nH]c1ccc(Cl)cc12 — outcome as called in the assay?
Reply text: True

Inquiry: Lab log entry: Cc1ccc(S(=O)(=O)NN=C2CCCCCCCCCCC2)cc1 — outcome as called in the assay?
Reply text: False

Inquiry: Lab log entry: CC(C)N1CCN(c2ccncc2S(=O)(=O)N2CCCCC2)CC1 — outcome as called in the assay?
Reply text: False

Inquiry: Lab log entry: Cc1c2c(n(CCN(C)C)c1C)NN=C(C#N)S2(=O)=O — outcome as called in the assay?
Reply text: False

Inquiry: Lab log entry: COc1cc2c(cc1O)CC[C@@H]1C2CC[C@@]2(C)C1CC[C@@H]2O (stereo not given in full) — outcome as called in the assay?
Reply text: False

Inquiry: Lab log entry: CCOC(=O)/C=C(/C(=O)OCC)n1ccc(=O)n(CC(=O)OCC)c1=O — outcome as called in the assay?
Reply text: True

Inquiry: Lab log entry: Cc1ccc2c(=O)c(C(=O)Nn3c(C)csc3=S)c[nH]c2n1 — outcome as called in the assay?
Reply text: False

Inquiry: Lab log entry: CCOC(=O)c1nc2ccc(C(F)(F)F)cc2nc1NCc1ccc(Cl)c(Cl)c1 — outcome as called in the assay?
Reply text: False

Inquiry: Lab log entry: C=C1CC(C#N)(C#N)[C@@H]2CC3CCCC3[C@H]12.C=C1CC(C#N)(C#N)[C@H]2C3CCCC3C[C@@H]12 (stereo not given in full) — outcome as called in the assay?
Reply text: False

Inquiry: Lab log entry: CC1(C)CC(=O)C2(CC(CSc3ccccc3)C(CS(=O)(=O)c3ccccc3)C2)C(=O)C1 (stereo not given) — outcome as called in the assay?
Reply text: False

Inquiry: Lab log entry: O=c1c2ccccc2[nH]c(=S)n1-c1ccc(/N=N/c2cccc3cc(O)ccc23)cc1 — outcome as called in the assay?
Reply text: False

Inquiry: Lab log entry: Cc1ccc([N+](=O)[O-])cc1S(=O)(=O)Nc1ccc(C(=O)/C=C/c2ccccc2)cc1 — outcome as called in the assay?
Reply text: False
